- EXPERIMENTAL_TARGET: PTPN1 (Homo sapiens)
- Construct: full-length recombinant
- Sequence (P18031 whole entry): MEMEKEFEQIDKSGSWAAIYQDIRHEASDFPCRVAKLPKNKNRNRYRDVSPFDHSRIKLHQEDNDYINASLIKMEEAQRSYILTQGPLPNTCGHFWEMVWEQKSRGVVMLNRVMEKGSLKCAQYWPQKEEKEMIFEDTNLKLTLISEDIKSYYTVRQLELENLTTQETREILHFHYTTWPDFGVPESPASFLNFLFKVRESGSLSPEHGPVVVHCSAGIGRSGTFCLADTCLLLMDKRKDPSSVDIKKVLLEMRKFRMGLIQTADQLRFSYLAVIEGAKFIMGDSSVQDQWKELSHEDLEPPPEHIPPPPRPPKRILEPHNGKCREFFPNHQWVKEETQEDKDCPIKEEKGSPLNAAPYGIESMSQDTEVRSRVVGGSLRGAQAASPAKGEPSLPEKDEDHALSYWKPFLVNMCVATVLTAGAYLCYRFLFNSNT
- PROCEDURE_DETAILS: mobility shift enzyme assay with labelled insulin receptor phosphopeptide
- Assay type: biochemical
METRIC: pIC50
# pIC50: negative log10 of molar concentration; output just the value

query: Look up pIC50 of O=C1CN(c2c(O)cc3ccc(NCC4CC4)cc3c2F)S(=O)(=O)N1 [A-650] and report it.
result: 8.55

---

- EXPERIMENTAL_TARGET: CAMKK2 (Homo sapiens, UniProt Q96RR4)
- Sequence (Q96RR4 whole entry): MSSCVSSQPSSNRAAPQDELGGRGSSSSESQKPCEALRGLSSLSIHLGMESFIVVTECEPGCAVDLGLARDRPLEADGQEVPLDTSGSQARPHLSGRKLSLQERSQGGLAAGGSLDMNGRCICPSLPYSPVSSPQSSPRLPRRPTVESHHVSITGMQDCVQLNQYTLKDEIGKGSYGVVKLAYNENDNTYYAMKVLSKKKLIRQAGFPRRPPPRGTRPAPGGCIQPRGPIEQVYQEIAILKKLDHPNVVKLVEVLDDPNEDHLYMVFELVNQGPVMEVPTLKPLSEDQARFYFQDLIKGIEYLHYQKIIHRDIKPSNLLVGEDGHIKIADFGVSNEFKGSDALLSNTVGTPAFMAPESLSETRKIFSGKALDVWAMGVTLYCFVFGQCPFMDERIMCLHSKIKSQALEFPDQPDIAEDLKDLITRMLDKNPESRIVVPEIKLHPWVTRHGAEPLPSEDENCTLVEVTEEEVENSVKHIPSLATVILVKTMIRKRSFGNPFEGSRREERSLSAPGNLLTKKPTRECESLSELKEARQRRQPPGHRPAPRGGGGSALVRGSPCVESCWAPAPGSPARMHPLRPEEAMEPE
pIC50: −log10 of the molar value.
METRIC: pIC50

query: Look up pIC50 of CC(C)CCN[C@@H]1CCc2cc(O)c(N3CC(=O)NS3(=O)=O)c(F)c2C1 [AC484, ABBV-CLS-484] and report it.
result: < 5.00

---

- EXPERIMENTAL_TARGET: PKC alpha-UBI (Homo sapiens)
METRIC: IC50

query: Please report IC50 with PKC alpha-UBI (Homo sapiens) for item CC(C)CCN[C@@H]1CCc2cc(O)c(N3CC(=O)NS3(=O)=O)c(F)c2C1 [AC484, ABBV-CLS-484] .
result: > 10 µM

---

- EXPERIMENTAL_TARGET: PKCepsilon (Homo sapiens)
- Sequence (Q02156 whole entry): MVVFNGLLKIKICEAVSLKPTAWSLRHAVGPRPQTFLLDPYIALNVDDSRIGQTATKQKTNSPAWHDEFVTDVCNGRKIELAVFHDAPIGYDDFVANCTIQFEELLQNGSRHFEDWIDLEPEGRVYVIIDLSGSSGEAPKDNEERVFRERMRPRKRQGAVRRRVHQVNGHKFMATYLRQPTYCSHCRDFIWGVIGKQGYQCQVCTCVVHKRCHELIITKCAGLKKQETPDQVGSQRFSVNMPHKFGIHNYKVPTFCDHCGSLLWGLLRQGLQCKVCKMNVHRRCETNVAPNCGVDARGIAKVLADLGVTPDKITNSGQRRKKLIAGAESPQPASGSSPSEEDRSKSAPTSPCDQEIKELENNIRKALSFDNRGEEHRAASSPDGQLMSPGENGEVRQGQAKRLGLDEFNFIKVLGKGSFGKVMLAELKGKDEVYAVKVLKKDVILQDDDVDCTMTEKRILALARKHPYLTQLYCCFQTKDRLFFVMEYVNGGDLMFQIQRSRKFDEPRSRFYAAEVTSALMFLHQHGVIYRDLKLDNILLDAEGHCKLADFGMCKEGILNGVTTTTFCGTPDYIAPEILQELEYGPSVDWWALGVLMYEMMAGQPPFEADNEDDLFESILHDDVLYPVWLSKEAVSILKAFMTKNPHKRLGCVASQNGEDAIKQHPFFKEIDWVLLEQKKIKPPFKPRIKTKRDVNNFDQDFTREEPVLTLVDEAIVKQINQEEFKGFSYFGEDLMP
METRIC: IC50

query: Look up IC50 of CC(C)CCN[C@@H]1CCc2cc(O)c(N3CC(=O)NS3(=O)=O)c(F)c2C1 and report it.
result: > 10 µM

---

- EXPERIMENTAL_TARGET: PKA (Homo sapiens)
METRIC: IC50

query: Please report IC50 with PKA (Homo sapiens) for item CC(C)CCN[C@@H]1CCc2cc(O)c(N3CC(=O)NS3(=O)=O)c(F)c2C1 [AC484, ABBV-CLS-484] .
result: > 10 µM

---

- EXPERIMENTAL_TARGET: Zap70 (Homo sapiens)
- Sequence (P43403 1-619): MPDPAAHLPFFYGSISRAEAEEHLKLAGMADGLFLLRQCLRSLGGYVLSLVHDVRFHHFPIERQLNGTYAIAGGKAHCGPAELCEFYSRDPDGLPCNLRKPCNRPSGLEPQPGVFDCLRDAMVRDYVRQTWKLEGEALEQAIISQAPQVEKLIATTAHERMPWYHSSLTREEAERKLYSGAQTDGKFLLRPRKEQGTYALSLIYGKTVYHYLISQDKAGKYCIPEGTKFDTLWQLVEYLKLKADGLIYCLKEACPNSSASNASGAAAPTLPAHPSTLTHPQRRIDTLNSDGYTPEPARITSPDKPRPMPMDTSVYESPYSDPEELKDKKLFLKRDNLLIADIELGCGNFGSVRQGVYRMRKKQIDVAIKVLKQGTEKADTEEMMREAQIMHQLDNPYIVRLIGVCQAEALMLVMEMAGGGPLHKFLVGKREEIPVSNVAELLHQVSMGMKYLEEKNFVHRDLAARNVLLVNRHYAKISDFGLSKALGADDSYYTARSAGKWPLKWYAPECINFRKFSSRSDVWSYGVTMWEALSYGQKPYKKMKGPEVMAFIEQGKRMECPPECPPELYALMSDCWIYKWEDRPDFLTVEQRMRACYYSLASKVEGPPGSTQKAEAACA
METRIC: IC50

query: Look up IC50 of CC(C)CCN[C@@H]1CCc2cc(O)c(N3CC(=O)NS3(=O)=O)c(F)c2C1 and report it.
result: > 10 µM

---

- EXPERIMENTAL_TARGET: Erk2 (Homo sapiens, UniProt P28482)
- Sequence (P28482 whole entry): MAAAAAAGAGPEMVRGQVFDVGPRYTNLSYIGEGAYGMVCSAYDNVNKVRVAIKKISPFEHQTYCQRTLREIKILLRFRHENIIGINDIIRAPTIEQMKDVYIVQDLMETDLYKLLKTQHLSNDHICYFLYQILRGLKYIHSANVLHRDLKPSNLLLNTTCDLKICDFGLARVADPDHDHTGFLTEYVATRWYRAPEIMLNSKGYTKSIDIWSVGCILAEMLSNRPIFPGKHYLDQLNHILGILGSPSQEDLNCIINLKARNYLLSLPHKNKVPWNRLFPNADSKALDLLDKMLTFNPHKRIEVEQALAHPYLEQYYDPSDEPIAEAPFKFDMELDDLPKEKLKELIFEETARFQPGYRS
METRIC: IC50

query: Look up IC50 of CC(C)CCN[C@@H]1CCc2cc(O)c(N3CC(=O)NS3(=O)=O)c(F)c2C1 and report it.
result: > 10 µM

---

- EXPERIMENTAL_TARGET: FAK (Homo sapiens, UniProt Q05397)
METRIC: IC50

query: Please report IC50 with FAK (Homo sapiens, UniProt Q05397) for item CC(C)CCN[C@@H]1CCc2cc(O)c(N3CC(=O)NS3(=O)=O)c(F)c2C1 [AC484, ABBV-CLS-484] .
result: > 10 µM

---

- EXPERIMENTAL_TARGET: BMX (Homo sapiens)
METRIC: IC50

query: Please report IC50 with BMX (Homo sapiens) for item CC(C)CCN[C@@H]1CCc2cc(O)c(N3CC(=O)NS3(=O)=O)c(F)c2C1 .
result: > 10 µM

---

- EXPERIMENTAL_TARGET: Nek2 (Homo sapiens, UniProt P51955)
- PROCEDURE_DETAILS: biochemical
- Design: Kinase selectivity panel, IC50 of AC484 (Supplementary Table 1)
METRIC: IC50

query: Look up IC50 of CC(C)CCN[C@@H]1CCc2cc(O)c(N3CC(=O)NS3(=O)=O)c(F)c2C1 [AC484, ABBV-CLS-484] and report it.
result: > 10 µM

---

- EXPERIMENTAL_TARGET: MAP4K4 (Homo sapiens)
METRIC: IC50

query: Look up IC50 of CC(C)CCN[C@@H]1CCc2cc(O)c(N3CC(=O)NS3(=O)=O)c(F)c2C1 and report it.
result: > 10 µM

---

- EXPERIMENTAL_TARGET: Pim1 (Homo sapiens)
- Sequence (P11309 whole entry): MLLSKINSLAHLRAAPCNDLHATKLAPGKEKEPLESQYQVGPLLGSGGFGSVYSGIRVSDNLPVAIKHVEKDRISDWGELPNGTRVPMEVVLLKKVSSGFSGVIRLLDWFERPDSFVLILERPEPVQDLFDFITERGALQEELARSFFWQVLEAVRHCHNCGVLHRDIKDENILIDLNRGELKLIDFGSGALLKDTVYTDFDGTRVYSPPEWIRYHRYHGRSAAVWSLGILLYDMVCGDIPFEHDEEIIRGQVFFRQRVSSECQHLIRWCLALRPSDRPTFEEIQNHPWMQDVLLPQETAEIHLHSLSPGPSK
METRIC: IC50

query: Look up IC50 of CC(C)CCN[C@@H]1CCc2cc(O)c(N3CC(=O)NS3(=O)=O)c(F)c2C1 and report it.
result: > 10 µM

---

- EXPERIMENTAL_TARGET: RIPK2 (Homo sapiens)
- Sequence (O43353 whole entry): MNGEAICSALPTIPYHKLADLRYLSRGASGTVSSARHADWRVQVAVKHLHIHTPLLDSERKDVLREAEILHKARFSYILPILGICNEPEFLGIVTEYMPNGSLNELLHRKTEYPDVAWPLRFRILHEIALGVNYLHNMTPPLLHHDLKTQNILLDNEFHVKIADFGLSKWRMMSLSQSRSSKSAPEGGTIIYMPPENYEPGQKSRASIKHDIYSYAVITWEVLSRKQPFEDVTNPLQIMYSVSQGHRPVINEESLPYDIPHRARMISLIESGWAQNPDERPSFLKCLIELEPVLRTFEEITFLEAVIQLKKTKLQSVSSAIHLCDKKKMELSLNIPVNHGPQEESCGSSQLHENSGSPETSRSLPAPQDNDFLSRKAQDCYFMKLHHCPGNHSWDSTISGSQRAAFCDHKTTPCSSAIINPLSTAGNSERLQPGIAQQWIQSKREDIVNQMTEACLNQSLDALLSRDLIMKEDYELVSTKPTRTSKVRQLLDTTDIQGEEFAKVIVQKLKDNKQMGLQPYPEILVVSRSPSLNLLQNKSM
METRIC: IC50

query: Please report IC50 with RIPK2 (Homo sapiens) for item CC(C)CCN[C@@H]1CCc2cc(O)c(N3CC(=O)NS3(=O)=O)c(F)c2C1 [AC484, ABBV-CLS-484] .
result: > 10 µM

---

- EXPERIMENTAL_TARGET: Fyn (Homo sapiens, UniProt P06241)
pIC50: −log10 of the molar value.
METRIC: pIC50

query: Look up pIC50 of CC(C)CCN[C@@H]1CCc2cc(O)c(N3CC(=O)NS3(=O)=O)c(F)c2C1 and report it.
result: < 5.00

---

- EXPERIMENTAL_TARGET: MAP4K1 (Homo sapiens)
pIC50: −log10 of the molar value.
METRIC: pIC50

query: Look up pIC50 of CC(C)CCN[C@@H]1CCc2cc(O)c(N3CC(=O)NS3(=O)=O)c(F)c2C1 [AC484, ABBV-CLS-484] and report it.
result: < 5.00

---

Sequence of the target: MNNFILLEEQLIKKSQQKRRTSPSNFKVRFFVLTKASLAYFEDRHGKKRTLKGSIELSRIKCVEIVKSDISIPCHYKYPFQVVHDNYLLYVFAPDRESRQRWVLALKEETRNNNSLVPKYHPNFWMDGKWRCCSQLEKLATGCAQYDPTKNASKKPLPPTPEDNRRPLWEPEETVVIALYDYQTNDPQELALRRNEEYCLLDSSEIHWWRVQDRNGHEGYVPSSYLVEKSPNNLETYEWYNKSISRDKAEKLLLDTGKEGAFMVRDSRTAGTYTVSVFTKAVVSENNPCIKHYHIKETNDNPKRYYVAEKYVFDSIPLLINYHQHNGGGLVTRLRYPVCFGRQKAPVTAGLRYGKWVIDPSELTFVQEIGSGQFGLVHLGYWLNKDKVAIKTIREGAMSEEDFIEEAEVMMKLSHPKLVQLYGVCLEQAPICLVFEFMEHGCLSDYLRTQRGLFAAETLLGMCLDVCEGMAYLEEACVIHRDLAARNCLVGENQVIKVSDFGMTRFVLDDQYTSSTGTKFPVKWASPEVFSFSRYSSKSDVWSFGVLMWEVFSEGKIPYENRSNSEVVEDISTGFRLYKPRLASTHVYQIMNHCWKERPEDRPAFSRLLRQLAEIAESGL
METRIC: IC50

query: Look up IC50 of CC(C)CCN[C@@H]1CCc2cc(O)c(N3CC(=O)NS3(=O)=O)c(F)c2C1 and report it.
result: > 10 µM

---

- EXPERIMENTAL_TARGET: _PKCtheta (Homo sapiens)
- Sequence (Q04759 whole entry): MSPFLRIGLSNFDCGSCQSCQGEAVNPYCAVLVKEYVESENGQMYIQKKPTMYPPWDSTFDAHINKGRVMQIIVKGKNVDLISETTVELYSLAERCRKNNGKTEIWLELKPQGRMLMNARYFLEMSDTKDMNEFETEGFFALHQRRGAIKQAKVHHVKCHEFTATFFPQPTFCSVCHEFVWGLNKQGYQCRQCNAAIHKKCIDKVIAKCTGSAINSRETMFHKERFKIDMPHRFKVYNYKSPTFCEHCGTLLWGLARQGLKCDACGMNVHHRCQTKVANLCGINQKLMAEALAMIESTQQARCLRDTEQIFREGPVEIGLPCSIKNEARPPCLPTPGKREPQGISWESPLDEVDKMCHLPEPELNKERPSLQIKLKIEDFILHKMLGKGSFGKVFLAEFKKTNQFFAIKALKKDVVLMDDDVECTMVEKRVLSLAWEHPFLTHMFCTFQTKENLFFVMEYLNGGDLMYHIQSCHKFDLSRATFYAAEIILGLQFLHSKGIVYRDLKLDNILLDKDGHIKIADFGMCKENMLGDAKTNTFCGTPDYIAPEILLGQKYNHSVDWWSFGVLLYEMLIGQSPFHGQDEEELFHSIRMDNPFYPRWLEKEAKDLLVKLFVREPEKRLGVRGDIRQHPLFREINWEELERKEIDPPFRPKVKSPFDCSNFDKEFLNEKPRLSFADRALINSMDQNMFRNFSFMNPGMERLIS
METRIC: IC50

query: Please report IC50 with _PKCtheta (Homo sapiens) for item CC(C)CCN[C@@H]1CCc2cc(O)c(N3CC(=O)NS3(=O)=O)c(F)c2C1 [AC484, ABBV-CLS-484] .
result: > 10 µM

---

- EXPERIMENTAL_TARGET: MAP3K10 (Homo sapiens)
- Sequence (Q02779 whole entry): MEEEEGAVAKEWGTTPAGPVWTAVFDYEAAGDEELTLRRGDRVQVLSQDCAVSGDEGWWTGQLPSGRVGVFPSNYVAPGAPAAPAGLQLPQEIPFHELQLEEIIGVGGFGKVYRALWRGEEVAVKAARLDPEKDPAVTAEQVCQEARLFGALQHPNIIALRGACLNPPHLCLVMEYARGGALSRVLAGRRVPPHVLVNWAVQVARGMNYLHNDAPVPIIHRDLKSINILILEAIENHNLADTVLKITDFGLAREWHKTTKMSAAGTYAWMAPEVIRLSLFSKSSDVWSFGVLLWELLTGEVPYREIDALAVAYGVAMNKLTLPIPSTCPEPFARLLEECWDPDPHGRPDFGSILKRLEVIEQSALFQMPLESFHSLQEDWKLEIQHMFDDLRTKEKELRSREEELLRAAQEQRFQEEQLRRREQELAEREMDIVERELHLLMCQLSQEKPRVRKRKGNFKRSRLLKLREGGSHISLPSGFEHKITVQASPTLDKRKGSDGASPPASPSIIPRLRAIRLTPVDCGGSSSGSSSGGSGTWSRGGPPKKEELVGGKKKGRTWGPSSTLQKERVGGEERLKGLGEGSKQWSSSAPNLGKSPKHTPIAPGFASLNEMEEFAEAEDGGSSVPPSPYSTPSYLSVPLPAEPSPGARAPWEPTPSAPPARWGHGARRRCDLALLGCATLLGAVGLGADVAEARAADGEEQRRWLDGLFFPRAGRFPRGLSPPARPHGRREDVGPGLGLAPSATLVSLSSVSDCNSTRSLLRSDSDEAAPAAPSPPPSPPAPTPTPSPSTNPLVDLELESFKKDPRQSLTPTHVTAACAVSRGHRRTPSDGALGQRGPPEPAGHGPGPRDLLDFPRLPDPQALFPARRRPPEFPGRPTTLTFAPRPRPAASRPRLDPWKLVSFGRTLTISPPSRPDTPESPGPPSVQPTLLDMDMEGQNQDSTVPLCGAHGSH
pIC50: −log10 of the molar value.
METRIC: pIC50

query: Look up pIC50 of CC(C)CCN[C@@H]1CCc2cc(O)c(N3CC(=O)NS3(=O)=O)c(F)c2C1 and report it.
result: < 5.00

---

- EXPERIMENTAL_TARGET: CLK2 (Homo sapiens, UniProt P49760)
pIC50: −log10 of the molar value.
METRIC: pIC50

query: Please report pIC50 with CLK2 (Homo sapiens, UniProt P49760) for item CC(C)CCN[C@@H]1CCc2cc(O)c(N3CC(=O)NS3(=O)=O)c(F)c2C1 .
result: < 5.00
